measurement protocol: Dose finding: lethal toxicity and MTD
Format: in vivo, mice
protocol conditions: female, nude, mouse, in vivo; IV, daily×6; maximum dose causing 0% death; read-out: MTD (total dose)
experimental readout: MTD at 6 days (mg/kg)

1) Nc1ncn([C@@H]2O[C@H](CO)[C@@H](O)[C@H]2O)c(=O)n1 [5-azacytidine]: 37.5

----------
measurement protocol: in vivo
protocol conditions: ICR, mouse, in vivo, iv
experimental readout: MTD (mg/kg)

1. Nc1ncn([C@@H]2O[C@H](CO)[C@@H](O)[C@H]2O)c(=O)n1: 90
